Molecular target: ScCyk3
Test: SPOT peptide array binding signal intensity (averaged, normalized) (arbitrary units (background-subtracted, floor 0; scale differs between SH3 domains)); higher = stronger binding of the SH3 domain to the peptide
Overview of recorded SPOT peptide array binding signal intensity for various binders
quantity.name: SPOT peptide array binding signal intensity

{"binder": "ALRRRLPVTRSKINW", "relation.symbol": "=", "measured.number": 160}
{"binder": "LLIRWLILMPLVGSR", "relation.symbol": "=", "measured.number": 122}
{"binder": "QPWTDQFEKLEKEVS", "relation.symbol": "≤", "measured.number": 0}
{"binder": "QQNRPLPQLPNRNNR", "relation.symbol": "=", "measured.number": 4}
{"binder": "DTFLPPPPPPPSNFE", "relation.symbol": "≤", "measured.number": 0}
{"binder": "RMVRRRPLRVQFSAR", "relation.symbol": "=", "measured.number": 81.5}
{"binder": "TKFRISLGLPVGAIM", "relation.symbol": "=", "measured.number": 292}
